// data source = patent US20240084011A1

We begin with a simple list: items and their reported Kd.
# target_or_system: recombinant mouse CTLA-4 protein (mouse) (UniProt P09793)
# Sequence (P09793 36-161 limits assumed): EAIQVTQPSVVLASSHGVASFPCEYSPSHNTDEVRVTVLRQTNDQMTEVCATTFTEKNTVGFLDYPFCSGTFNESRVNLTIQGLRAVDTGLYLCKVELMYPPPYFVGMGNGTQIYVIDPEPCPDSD
# method: SPR (Pioneer FE, OneStep), 25 C; 3xFLAG scFv captured by anti-FLAG M2, mouse CTLA-4 as analyte
Just the number please, in nM, no unit attached.

stdin: Give Kd for the following binder: 78-8D4 scFv (scFv, part only; not given: Linker, domain order, 3xFLAG tag, V domains shown, not shown: another chain or arm of the molecule; small tags and cut ends) VH: EVQLVESGGGLVQPGGSLRLSCAASGFTFSSYVMHWVRQAPGKGLEWVSAITWSGGGTYYADSVKGRFTISRDNSKNTLYLQMNSLRAEDTAVYYCARGRLFGLVRYGEAFDVWGQGTLVTVSS VL: DIQMTQSPSSLSASVGDRVTITCQASKDISNYLNWYQQKPGKAPKLLIYDASNLETGVPSRFSGSGSGTDFTFTISSLQPEDIATYYCQQFNSFPLTFGQGTKVEIK
stdout: 0.2
